# Tested on: HOP-92 NSCLC
# assay: NCI-60 one-dose screen, 48 h (100 = growth as untreated, 0 = no growth, -100 = all killed)
# particulars: 10 µM unless noted
This is part of a sample that, as a whole, favours compounds with a hit. Of some 83,000 tested, about 20% had one in any assay.
assay endpoint: growth (%)
Please give a number only; it is taken to be in %.

Prompt line: Provide the documented growth with HOP-92 NSCLC as the system for Cc1ccc(N2CCN(CCC#N)CC2)cc1
Response line: 98.4

Prompt line: Same for c1ccc(CCN2CCCCC2)nc1
Response line: 91.7

Prompt line: Same for CCOP(=O)(NC)OCC
Response line: 74.5

Prompt line: Same for OCCNC1CCCCC1
Response line: 108

Prompt line: Same for CCCC1CCCCC12C(=O)NC(=O)NC2=O (stereo not drawn)
Response line: 103

Prompt line: Same for COc1cc2c(cc1OC)[C@@H]1C(=O)c3ccc4c(c3O[C@@H]1CO2)C[C@H](C(C)C)O4
Response line: 57.3

Prompt line: Same for S=P(SP(=S)(c1ccccc1)c1ccccc1)(c1ccccc1)c1ccccc1
Response line: 86.7

Prompt line: Same for O=C(CBr)OCCOC(=O)CBr
Response line: 114

Prompt line: Same for CC(=O)OC1CC2(O)C(CCC3(C)C(c4ccc(=O)oc4)CCC32O)C2(C)CCC(OC3OC(CO)C(O)C(O)C3O)C=C12 (stereo not drawn)
Response line: -24.2

Prompt line: Same for COc1cc(C=C2C(=O)NC(=O)NC2=O)ccc1O
Response line: 113

Prompt line: Same for COc1cc(/C=C\[N+](=O)[O-])ccc1OCc1ccccc1
Response line: 66.3

Prompt line: Same for C[N+]1(CC#CC[N+]2(C)CCCC2)CCCC1
Response line: 90.6

Prompt line: Same for CC[C@@H](C)C(=O)O[C@H]1[C@H](O)[C@H]2[C@@H](CN3C[C@@H](C)CC[C@H]3[C@@]2(C)O)[C@@H]2C[C@]34O[C@]5(O)[C@@H](OC(=O)[C@@](C)(O)CC)CC[C@@]3(C)[C@@H]5[C@@H](OC(C)=O)[C@@H](OC(C)=O)[C@H]4[C@@]21O
Response line: 90
